- PROTOCOL NOTES: Plasma and urine pharmacokinetics in patients
- Assay type: in vivo, human
- TEST CONTEXT: human, plasma, intravenous
PROPERTY NAME: half-life

molecule="CC(C)c1cc(C(=O)N2Cc3ccc(CN4CCN(C)CC4)cc3C2)c(O)cc1O [onalespib]" data_value="~8 h"
